Target sequence: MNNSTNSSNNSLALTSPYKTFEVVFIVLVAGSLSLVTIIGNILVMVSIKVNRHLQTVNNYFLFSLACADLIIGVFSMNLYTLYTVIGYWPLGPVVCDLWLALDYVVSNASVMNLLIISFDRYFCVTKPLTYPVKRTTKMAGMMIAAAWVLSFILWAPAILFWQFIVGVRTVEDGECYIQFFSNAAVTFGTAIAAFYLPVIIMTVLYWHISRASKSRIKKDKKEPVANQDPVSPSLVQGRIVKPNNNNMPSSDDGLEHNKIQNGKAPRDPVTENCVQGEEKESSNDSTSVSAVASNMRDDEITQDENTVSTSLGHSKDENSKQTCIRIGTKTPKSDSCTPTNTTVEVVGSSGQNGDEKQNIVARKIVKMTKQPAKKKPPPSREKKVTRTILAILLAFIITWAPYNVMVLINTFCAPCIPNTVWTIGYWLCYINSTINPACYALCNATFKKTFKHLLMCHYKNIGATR
pKi: −log10 of the molar value.
Criterion: pKi meeting or surpassing 6. Met: rule met. Not met: rule not met.

Solved entries:
NC1CCN(CCCCC2CCN(CC(=O)N3c4ccccc4NC(=O)c4ccccc43)CC2)CC1	rule met
NCCN1CCN(CCCC2CCN(CC(=O)N3c4ccccc4NC(=O)c4ccccc43)CC2)CC1	rule met
NCCN1CCN(CC(=O)NC2CCN(CC(=O)N3c4ccccc4NC(=O)c4ccccc43)CC2)CC1	rule not met

(Q) Reported pKi reaches at least 6 for CC(=O)N[C@@H](CCCCN)C(=O)N[C@@H](CCCNC(=N)N)C(=O)NCCCCC1CCN(CC(=O)N2c3ccccc3NC(=O)c3ccccc32)CC1 ?
(A) rule met

(Q) Reported pKi reaches at least 6 for NCCN1CCN(CCC(=O)NC2CCN(CC(=O)N3c4ccccc4NC(=O)c4ccccc43)CC2)CC1 ?
(A) rule met

(Q) Reported pKi reaches at least 6 for CCCN[C@@H](CCNC(=N)N)C(=O)N[C@@H](CCCCN)C(=O)NC(C)=O ?
(A) rule not met
